Data origin: the supplement of paper PMC7877785

Protocol Text: self-splicing fitness, log relative to wild type (ln ratio); higher = more splicing; Tetrahymena group I intron in knt gene, E. coli kanamycin selection, DiMSum; sequences stand for … in CUCUCU…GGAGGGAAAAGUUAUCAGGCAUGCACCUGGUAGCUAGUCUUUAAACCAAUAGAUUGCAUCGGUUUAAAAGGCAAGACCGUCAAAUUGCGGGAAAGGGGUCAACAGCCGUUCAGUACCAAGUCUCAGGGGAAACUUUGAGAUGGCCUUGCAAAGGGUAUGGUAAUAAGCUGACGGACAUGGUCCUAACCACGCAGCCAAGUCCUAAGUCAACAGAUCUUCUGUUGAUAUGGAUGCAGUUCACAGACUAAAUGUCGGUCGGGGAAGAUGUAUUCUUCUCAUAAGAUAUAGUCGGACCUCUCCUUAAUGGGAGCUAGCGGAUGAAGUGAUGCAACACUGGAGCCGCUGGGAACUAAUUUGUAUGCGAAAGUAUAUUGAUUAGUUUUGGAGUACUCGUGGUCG;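 further: selection with 25 µg/mL kanamycin versus none on LB agar overnight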
Condition Summary: 37 °C
Class Condition met: self-splicing fitness (ln) at least -2. Class Condition not met: self-splicing fitness (ln) below -2.

Use these answered entries as a reference point.
{"columns": ["Sequence Input", "Class Label"],
 "data": [
  ["GCGAAGCAAUAUUACGUAAA", "Condition not met"],
  ["AGCUAGCAAUAUUACGCCAU", "Condition met"],
  ["UCCCAGCAAUAUUACGAAGG", "Condition met"],
  ["UGAAAGCAAUAUUACGGAGA", "Condition not met"],
  ["UGCGAGCAAUAUUACGCACU", "Condition met"],
  ["AACCAGCAAUAUUACGAGUC", "Condition met"],
  ["CAUGAGCAAUAUUACGUAGA", "Condition not met"],
  ["CAAUAGCAAUAUUACGCAGU", "Condition not met"],
  ["UUUUAGCAAUAUUACGUGAU", "Condition not met"],
  ["UUGUAGCAAUAUUACGGUCA", "Condition met"]
]}

Is reported self-splicing fitness (ln) greater than or equal to -2 here: AUGUAGCAAUAUUACGCCUU
Condition met

Is reported self-splicing fitness (ln) greater than or equal to -2 here: GAUUAGCAAUAUUACGAAAU
Condition met

Is reported self-splicing fitness (ln) greater than or equal to -2 here: GGUUAGCAAUAUUACGCGCA
Condition met

Is reported self-splicing fitness (ln) greater than or equal to -2 here: AUCAAGCAAUAUUACGUUCA
Condition met

Is reported self-splicing fitness (ln) greater than or equal to -2 here: CCCUAGCAAUAUUACGGAUU
Condition not met

Is reported self-splicing fitness (ln) greater than or equal to -2 here: ACGGAGCAAUAUUACGGAUG
Condition met

Is reported self-splicing fitness (ln) greater than or equal to -2 here: AUUAAGCAAUAUUACGUUUU
Condition met

Is reported self-splicing fitness (ln) greater than or equal to -2 here: ACGGAGCAAUAUUACGCUGG
Condition met
